Tested on: influenza A virus (A/WSN/33 NanoLuc reporter virus) in A549 cells
Assay: microbe, parasite or virus in culture
Format: cell-based
Settings: A549, 24 h, read-out: IC50 values of viral replication inhibition in a cell-based Luciferase Reporter Assay (LRA)
Where a name gives a salt, the structure may show the parent alone.
measuredParameter: log10(IC50) (log10 of the value in nM)
Please keep in mind that the values are log10 of IC50 expressed in nM.

Example entries and their recorded answers appear below.
1) CC(C)N1C[C@H](C2c3ccccc3CCc3ccccc32)n2c([S+](C)[O-])nc(=O)c(O)c2C1=O (stereo partly shown)    1.18
2) COc1nc(=O)c(O)c2n1[C@@H](C(c1ccccc1)c1ccccc1)CN(C)C2=O    1.41
3) COc1ccc(CNc2nc(=O)c(O)c3n2[C@@H](C(c2ccccc2)c2ccccc2)CN(C(C)C)C3=O)cc1 [Example 1a-2, formate]    3.32
4) CCOc1nc(=O)c(O)c2n1[C@@H](C1c3ccccc3CCc3ccccc31)CN(C(C)C)C2=O    1.38
5) CCS(=O)(=O)c1nc(=O)c(O)c2n1[C@@H](C(c1ccccc1)c1ccccc1)CN(C(C)C)C2=O    2.67
6) CC(C)N1C[C@H](C(c2ccccc2)c2ccccc2)n2c(C#N)nc(=O)c(O)c2C1=O    2.57
7) CC(C)N1C[C@H](C(c2ccccc2)c2ccccc2)n2c(CN)nc(=O)c(O)c2C1=O    2.97
8) CC(C)N1C[C@H](C(c2ccccc2)c2ccccc2)n2c(-c3ccccc3)nc(=O)c(O)c2C1=O    2.10
9) CC(C)N1C[C@H](C(c2ccccc2)c2ccccc2)n2c(NS(C)(=O)=O)nc(=O)c(O)c2C1=O    3.22
10) COc1nc(=O)c(O)c2n1[C@@H](C1c3cccc(F)c3CCc3c(F)cccc31)[C@H](C)N(C)C2=O    1.18

Please look at the following molecule next.
Exam item: For the molecule shown here, `CC(C)N1C[C@H](C2c3ccccc3CCc3ccccc32)n2c(S(C)(=O)=O)nc(=O)c(O)c2C1=O` , give the reported log10(IC50).
Marked response: 1.11
